# system_name: T1, FNsACP, homolog of ArCPNp from Fischerella
# T1 chain: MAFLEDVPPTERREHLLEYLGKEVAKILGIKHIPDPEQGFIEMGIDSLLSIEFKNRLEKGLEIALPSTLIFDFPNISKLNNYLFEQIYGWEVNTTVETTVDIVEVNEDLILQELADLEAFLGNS
readout_name: kcat/Km (M⁻¹ s⁻¹)
Just the number please, in M⁻¹ s⁻¹, no unit attached.

Requested field: kcat/Km. Item: APPT, Sfp-like phosphopantetheinyl transferase (PPTase) from Anabaena sp. PCC7120 (protein) MLQHTWLPKPPNLTLLSDEVHLWRIPLDQPESQLQDLAATLSSDELARANRFYFPEHRRRFTAGRGILRSILGGYLGVEPGQVKFDYESRGKPILGDRFAESGLLFNLSHSQNLALCAVNYTRQIGIDLEYLRPTSDLESLAKRFFLPREYELLRSLPDEQKQKIFFRYWTCKEAYLKATGDGIAKLEEIEIALTPTEPAKLQTAPAWSLLELVPDDNCVAAVAVAGFGWQPKFWHY
5000

Requested field: kcat/Km. Item: MPPT, Sfp-like phosphopantetheinyl transferase (PPTase) from Microcystis aeruginosa NIES843 (protein) MFISTDEVHLYFISLDPSGDRLETLASLLSEDEIIRANRYHFPEHKRRFLVARGCLREILGSYLAISPEKIEFIYSERGKPSINYQLQFNLSHSEEMAICGLTLTARIGVDLEKMRQMKDLDSLTKRFFCAREHELVEKSAEKEKLFFQLWTAKEAYLKAVGTGISGGLDRVEVGLNPLKLDNVAGEWQLWTAAIGDNYRATVVIEGSDRVIKTFGLSDL
5000

Requested field: kcat/Km. Item: SPPT, Sfp-like phosphopantetheinyl transferase (PPTase) from Synechocystis sp. PCC6803 (protein) MLPQPQIWLCPTDRPLIPGYQALLSSEEMARGERYQRPQDKQRFLTMRLALRILLARQLDCLPQQLQFTYGPQGKPELVDRERRSPWFNVAHSGNYGLIGLSTEGEIGVDLQIMLPKPHYLKLAKRFFAPQEVQQLESLEGEKRTKLFYQLWTAKEAFLKATGKGISGGLNQVIPDENLAKYQYLPDSGDTNHWRLSSQPLLADQGSNDNYWMAIAWCTNEVNQVESNYLPNIQPFQWPRNLDSLP
1670
